- System: SR
- Run Description: NCI tumour cell line growth inhibition, 48 h
Activity calls are given as the source filed them. Cut-off read from the data, not from the text of the source: active = GI50 up to about 1.1 µM and inactive = higher.
Measured Property: GI50

Enquiry: Report GI50 for CC/C(C)=C1\CCC(CN2CCOCC2)C1=O (stereo unspecified) please.
Return: 11.2 µM (inactive)

Enquiry: Report GI50 for C=C(Cl)[C@@](Cl)(CBr)CC[C@@H](Br)C(C)(C)Cl please.
Return: 15.4 µM (inactive)

Enquiry: Report GI50 for CCOC(=O)C(=O)/C(=C/N1C(=O)CC(=O)NC1=S)C(=O)OCC please.
Return: > 100 µM (inactive)

Enquiry: Report GI50 for Oc1cccc(-c2cn3cc(Cl)ccc3n2)c1 please.
Return: 47.2 µM (inactive)

Enquiry: Report GI50 for Nc1c(C(=O)c2ccccc2)[nH]c(NCc2ccccc2)c1C(=S)Nc1ccccc1 please.
Return: > 100 µM (inactive)

Enquiry: Report GI50 for CCCCS(=O)(=O)CCC(N)P(=O)(O)O (stereo unspecified) please.
Return: > 100 µM (inactive)

====

Give GI50 for every item shown.
- Test system: SR
- Run Description: NCI tumour cell line growth inhibition, 48 h
Activity calls are given as the source filed them. Cut-off read from the data, not from the text of the source: active = GI50 up to about 1.1 µM and inactive = higher.

Enquiry: Request body: readout GI50, system SR, query O=C(O)CCC(NC(=O)c1ccccc1)C(=O)O (stereo unspecified) . Return the value.
Return: > 100 µM (inactive)

Enquiry: Request body: readout GI50, system SR, query O=C(O)c1c(-c2c3ccc(=O)cc-3oc3cc(O)ccc23)cc2ccccc2c1-c1ccccc1 . Return the value.
Return: > 100 µM (inactive)

Enquiry: Request body: readout GI50, system SR, query ON1CCc2c([nH]c3ccccc23)C1c1ccc(Cl)cc1 (stereo unspecified) . Return the value.
Return: 20.3 µM (inactive)

Enquiry: Request body: readout GI50, system SR, query O=c1[nH]c2ccc(O)cc2o1 . Return the value.
Return: > 100 µM (inactive)

Enquiry: Request body: readout GI50, system SR, query CC1=NN2C(c3ccc([N+](=O)[O-])cc3)=CSC2=NC(C)(C)C1 . Return the value.
Return: > 100 µM (inactive)

Enquiry: Request body: readout GI50, system SR, query CC(C)=NNc1cnnc2ccc([N+](=O)[O-])cc12 . Return the value.
Return: 30.3 µM (inactive)

Enquiry: Request body: readout GI50, system SR, query CNC1C(O)C(OC2C(N)CC(N)C(OC3OC(C(C)O)C(O)C(O)C3N)C2O)OCC1(C)O (stereo unspecified) . Return the value.
Return: > 100 µM (inactive)

Enquiry: Request body: readout GI50, system SR, query COC(=O)C(CC1=C(O)Nc2ccccc2N1)/C(=N/NC(N)=O)C(=O)Nc1ccccc1C (stereo unspecified) . Return the value.
Return: 20.8 µM (inactive)

Enquiry: Request body: readout GI50, system SR, query CN1CCC(SC2Cc3cc(Cl)ccc3Sc3ccccc32)CC1 (stereo unspecified) . Return the value.
Return: 8.18 µM (inactive)

Enquiry: Request body: readout GI50, system SR, query C(CCc1nnc2c(n1)CCCC2)Cc1nnc2c(n1)CCCC2 . Return the value.
Return: 88.7 µM (inactive)

Enquiry: Request body: readout GI50, system SR, query Sc1nnc(Cc2ccc(Cl)cc2)[nH]1 . Return the value.
Return: 58.6 µM (inactive)

====

- Tested on: NCI-H226
- Run Description: NCI tumour cell line growth inhibition, 48 h
The source made the active and inactive calls. Rule as the data show it: active = GI50 up to about 1.1 µM and inactive = higher.
Your response should consist of one outcome taken from active, inactive

Enquiry: // param item: CC(=O)OCC1OC(OC2CC3C(C)(C)C(=O)CC[C@]3(C)C3CC[C@]45C[C@]4(CCC5[C@@H](C)CC(O)C(O)C(C)(C)O)[C@]23C)C(O)C(O)C1O (some centres undefined) ; yields the recorded call
Return: inactive

Enquiry: // param item: COC(=O)C(Cc1c[nH]c2ccccc12)NC(=O)C(Cc1c[nH]cn1)NC(=O)C1CCC(=O)N1C(=O)OCc1ccccc1 (centres undefined) ; yields the recorded call
Return: inactive

Enquiry: // param item: CC1=C(C(=O)OC23CC4CC(CC(C4)C2)C3)C(c2ccccc2OC(F)F)C(C(=O)OC23CC4CC(CC(C4)C2)C3)=C(C)N1 (centres undefined) ; yields the recorded call
Return: inactive

Enquiry: // param item: CCOc1ccc(OCC)c([P+](c2ccccc2)(c2ccccc2)c2ccccc2)c1 ; yields the recorded call
Return: active

====

- System: EKVX
- Run Description: NCI tumour cell line growth inhibition, 48 h
Active and inactive are the calls of the source. Cut-off read from the data, not from the text of the source: active = GI50 up to about 1.1 µM and inactive = higher.
Your response should consist of one outcome taken from active, inactive

Enquiry: // param item: COC(=O)c1cc2c(c(C(=O)OC)c1)CCC2 ; yields the recorded call
Return: inactive

Enquiry: // param item: C=C1C(=O)C2(C)OC2(C)C1C(=O)O (stereo not given) ; yields the recorded call
Return: inactive

Enquiry: // param item: CCOc1ccc(NCC2CC/C(=C\c3ccc(O)cc3)C2=O)cc1 (stereo not given) ; yields the recorded call
Return: inactive

Enquiry: // param item: CC(C)=NNc1cnnc2ccc([N+](=O)[O-])cc12 ; yields the recorded call
Return: inactive

Enquiry: // param item: COC(=O)C1C2CC3C(OC(=O)C31)C2OC(=O)[C@](OC)(c1ccccc1)C(F)(F)F (stereo not given in full) ; yields the recorded call
Return: inactive

Enquiry: // param item: CCOC(=O)CNC(=O)CNC(=O)CNC(=O)CNNc1c(OCc2ccccc2)c(=O)c1=O ; yields the recorded call
Return: inactive

Enquiry: // param item: CCO/C=C(\C(=O)OC)S(=O)(=O)c1ccc(C)cc1 ; yields the recorded call
Return: inactive

Enquiry: // param item: CC[C@H]1CN2CCc3cc(OC)c(OC)cc3[C@@H]2C[C@@H]1C[C@H]1NCCc2c1[nH]c1ccc(O)cc21 [TUBULOSINE] ; yields the recorded call
Return: active

Enquiry: // param item: COC(=O)C(Cc1c[nH]c2ccccc12)NC(=O)C(Cc1c[nH]cn1)NC(=O)C1CCC(=O)N1C(=O)OCc1ccccc1 (stereo not given) ; yields the recorded call
Return: inactive

Enquiry: // param item: CCC/C(Cl)=N\OC(=O)Nc1ccc(OC(F)(F)F)cc1 ; yields the recorded call
Return: inactive

====

Give GI50 for every item shown.
- Tested on: MCF7
- Run Description: NCI tumour cell line growth inhibition, 48 h
Active and inactive are the calls of the source. No stated cut-off is given here; in the data, active = GI50 up to about 1.1 µM and inactive = higher.

Enquiry: Report GI50 for COc1ccc(/C=C2\N=C(N3CCCC(CO)C3)NC2=O)cc1 (centres undefined) please.
Return: > 100 µM (inactive)

Enquiry: Report GI50 for CC(=O)Nc1ncc(Sc2ccccc2C(=O)O)s1 please.
Return: > 100 µM (inactive)

Enquiry: Report GI50 for CCOC(=O)/C=C/[C@@H](CC)O[Si](C(C)C)(C(C)C)C(C)C please.
Return: 90.2 µM (inactive)

Enquiry: Report GI50 for CN(C)c1cccc(OC(=O)NCCCl)c1 please.
Return: > 100 µM (inactive)

Enquiry: Report GI50 for Cc1c2cccc(Sc3ccccc3)c2c2c3c(cccc13)[S+](c1ccccc1)C2 (centres undefined) please.
Return: 1.33 µM (inactive)

Enquiry: Report GI50 for CN1CCN(CCCCN2c3ccccc3Sc3cc(N=[N+]=[N-])ccc32)CC1 please.
Return: 1.99 µM (inactive)

Enquiry: Report GI50 for CC(C)(C)c1cc(C(=O)/C=C/c2cc[nH]n2)cc(C(C)(C)C)c1O please.
Return: 1.36 µM (inactive)

Enquiry: Report GI50 for CCCCCC1CC=CC(=O)O1 (centres undefined) please.
Return: 6.52 µM (inactive)

Enquiry: Report GI50 for COC(C)(C)[C@@H](O)[C@H]1C[C@H](C)[C@@]2(CC[C@]3(C)[C@@H]2CC[C@@H]2[C@@]4(C)CC[C@@H](OC(C)=O)C(C)(C)[C@@H]4C[C@@H](OC4OC(COC(C)=O)C(O)C(O)C4O)[C@]23C)O1 (some centres undefined) please.
Return: 2.86 µM (inactive)

Enquiry: Report GI50 for O=C(NC/C=C/CO)c1ccccc1 please.
Return: > 100 µM (inactive)

Enquiry: Report GI50 for CCOC(=O)C(=O)/C(=C/N1C(=O)CC(=O)NC1=S)C(=O)OCC please.
Return: > 100 µM (inactive)

Enquiry: Report GI50 for CSC(=S)N(C)C please.
Return: > 100 µM (inactive)

Enquiry: Report GI50 for CC1(C)OC[C@@H](O)[C@H](C#N)CO1 please.
Return: > 100 µM (inactive)

Enquiry: Report GI50 for C=CC1(c2ccc(OC)cc2)OCCCO1 please.
Return: > 100 µM (inactive)

Enquiry: Report GI50 for O=S(=O)(CC(Cl)c1ccccc1)c1nc2ccccc2s1 (centres undefined) please.
Return: 7.48 µM (inactive)

Enquiry: Report GI50 for COC(=O)[C@](NC(=O)OCc1ccccc1)([C@@H](C)Sc1ccc(C)cc1)C(F)(F)F please.
Return: 28.9 µM (inactive)

Enquiry: Report GI50 for Cc1cc(/N=N/c2ccc(/N=N/c3c(O)c(S(=O)(=O)O)cc4cc(S(=O)(=O)O)ccc34)cc2C)ccc1/N=N/c1ccc2cc(S(=O)(=O)O)cc(S(=O)(=O)O)c2c1 please.
Return: > 100 µM (inactive)

Enquiry: Report GI50 for Cc1cc2c(cc1C)[n+]([O-])c(C(F)(F)F)c(C(=O)c1ccccc1)[n+]2[O-] please.
Return: 3.27 µM (inactive)

Enquiry: Report GI50 for CC1(C)CC[C@]2(C(=O)O)CC[C@]3(C)C(=CC[C@@H]4[C@@]5(C)CC[C@H](OC6OC(CO)C(O)C(O)C6OC6OC(CO)C(O)C(O)C6O)C(C)(C)[C@@H]5CC[C@]43C)[C@@H]2C1 (some centres undefined) please.
Return: 19.6 µM (inactive)
